FYI, the data here is from ChEMBL document CHEMBL2424572.

Answer each item with its documented IC50.
# measured.on: Matrix metalloproteinase-9 (Homo sapiens, UniProt P14780)
# Sequence (P14780 whole entry): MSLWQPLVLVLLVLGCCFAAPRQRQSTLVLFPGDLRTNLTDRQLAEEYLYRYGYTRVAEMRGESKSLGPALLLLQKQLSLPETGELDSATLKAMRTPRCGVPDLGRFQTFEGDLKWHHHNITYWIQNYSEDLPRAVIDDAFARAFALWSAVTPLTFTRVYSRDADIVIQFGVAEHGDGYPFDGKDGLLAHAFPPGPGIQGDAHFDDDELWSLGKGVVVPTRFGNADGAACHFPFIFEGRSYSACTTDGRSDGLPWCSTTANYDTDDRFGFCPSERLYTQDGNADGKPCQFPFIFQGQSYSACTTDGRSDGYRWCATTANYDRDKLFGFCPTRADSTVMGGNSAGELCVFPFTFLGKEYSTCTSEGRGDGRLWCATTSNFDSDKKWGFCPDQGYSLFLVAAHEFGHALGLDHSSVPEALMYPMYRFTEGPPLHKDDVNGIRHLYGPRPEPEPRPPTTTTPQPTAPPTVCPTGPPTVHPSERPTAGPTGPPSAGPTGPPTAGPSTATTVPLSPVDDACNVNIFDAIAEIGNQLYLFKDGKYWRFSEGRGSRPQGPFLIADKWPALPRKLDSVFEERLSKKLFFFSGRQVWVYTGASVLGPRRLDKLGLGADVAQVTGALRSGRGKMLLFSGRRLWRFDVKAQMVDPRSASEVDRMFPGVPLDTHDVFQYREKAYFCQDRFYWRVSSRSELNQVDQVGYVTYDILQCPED
Numbers only, in nM.

# count of solved cases: 4
Q. Return reported IC50; argument: CC(C)[C@H](C(=O)NO)N(CCn1cc(CN(C)S(=O)(=O)c2ccc(F)cc2)nn1)S(=O)(=O)c1ccc(OCCF)cc1
A. 11

Q. Let us now turn to Cc1ccc(S(=O)(=O)N(CCn2cc(CCCCOc3cccnc3F)nn2)[C@@H](C(=O)NO)C(C)C)cc1
A. 6

Q. Let us now turn to CC(C)[C@H](C(=O)NO)N(CCn1cc(COCCOCCOCCOCCOCCF)nn1)S(=O)(=O)c1ccc(OCCF)cc1
A. 10

Q. Let us now turn to CC(C)[C@H](C(=O)NO)N(Cc1cn(CCOCCOCCOCCOc2cccnc2F)nn1)S(=O)(=O)c1ccc(OCCF)cc1
A. 0.2

Here's the next entry for you.
Q. Return reported IC50; argument: COc1ccc(S(=O)(=O)N(CCn2cc(CN(C)S(=O)(=O)c3ccc(F)cc3)nn2)[C@@H](C(=O)NO)C(C)C)cc1
A. 3

###

# measured.on: 72 kDa type IV collagenase (Homo sapiens, UniProt P08253)
# Sequence (P08253 whole entry): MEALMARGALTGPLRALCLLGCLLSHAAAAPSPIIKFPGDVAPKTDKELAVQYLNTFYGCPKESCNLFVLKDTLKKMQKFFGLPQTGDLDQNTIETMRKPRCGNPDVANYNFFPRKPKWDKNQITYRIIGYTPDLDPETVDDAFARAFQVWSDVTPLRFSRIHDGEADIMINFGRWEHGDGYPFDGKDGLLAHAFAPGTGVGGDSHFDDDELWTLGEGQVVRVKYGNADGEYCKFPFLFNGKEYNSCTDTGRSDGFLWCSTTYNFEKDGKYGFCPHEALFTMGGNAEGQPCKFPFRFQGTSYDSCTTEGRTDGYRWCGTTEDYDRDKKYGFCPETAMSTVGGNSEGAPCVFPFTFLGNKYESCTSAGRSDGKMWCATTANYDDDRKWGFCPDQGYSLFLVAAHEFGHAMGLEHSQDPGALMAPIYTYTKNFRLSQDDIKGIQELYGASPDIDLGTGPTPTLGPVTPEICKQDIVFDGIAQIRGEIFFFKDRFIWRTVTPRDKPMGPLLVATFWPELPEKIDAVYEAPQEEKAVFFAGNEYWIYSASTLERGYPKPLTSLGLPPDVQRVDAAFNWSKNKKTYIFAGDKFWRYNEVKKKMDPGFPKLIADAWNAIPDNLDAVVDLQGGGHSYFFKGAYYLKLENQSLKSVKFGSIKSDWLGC
# protocol.details: Inhibition of MMP-2 (unknown origin) using 7-methoxycoumarin-4-yl)acetyl-Pro-Leu-Gly-Leu-(3-(2,4-dinitrophenyl)-L-2,3-diamino-propionyl)Ala-Arg-NH2 as substrate preincubated for 30 mins followed by substrate addition by fluorescence assay
readout.kind: pIC50
Numbers only, as −log10 of the molar value.

Q. Return reported pIC50; argument: CC(C)[C@H](C(=O)NO)N(CCn1cc(COCCOCCOCCOCCOCCF)nn1)S(=O)(=O)c1ccc(OCCF)cc1
A. 8.30

Q. Let us now turn to Cc1ccc(S(=O)(=O)N(CCn2cc(COCCOCCOCCOCCOCCF)nn2)[C@@H](C(=O)NO)C(C)C)cc1
A. 8.52

Here's the next entry for you.
Q. Return reported pIC50; argument: CC(C)[C@H](C(=O)NO)N(CCN=[N+]=[N-])S(=O)(=O)c1ccc(OCCF)cc1
A. 8.40
